- System: IL-17A-induced G-CSF production in human normal keratinocyte (NHK)
- experiment_summary: NHK Assay: IL-17A-induced G-CSF production in human normal keratinocyte
- Format: cell-based
- experimental_context: Homo sapiens, Keratinocyte, 24 h, IL-17A 5 ng/mL, simple average if tested more than once
The following compounds are shown together with reported IC50 values.

Use these answered entries as a reference point.
compound: COC[C@H](c1ccc2[nH]c(C(COC(C)(C)C(F)(F)F)NC(=O)c3cnn(CC4CC4)n3)nc2c1)N1CC(F)(F)CNC1=O (single isomer, unassigned)
target_of_assay: IL-17A-induced G-CSF production in human normal keratinocyte (NHK)
value_measured: 50 to 100 nM

compound: COC[C@H](c1ccc2[nH]c(C(COC(C)(C)C(F)(F)F)NC(=O)c3ncnn3C(C)C)nc2c1)N1CC(F)(F)CNC1=O (single isomer, unassigned)
target_of_assay: IL-17A-induced G-CSF production in human normal keratinocyte (NHK)
value_measured: < 50 nM

Fill in IC50 for [2H]C1([2H])[C@@H](C(F)(F)F)NC(=O)N1[C@H](COC)c1ccc2[nH]c([C@H](COC(C)(C)C(F)(F)F)NC(=O)c3nonc3C)nc2c1 (relative stereo) tested with IL-17A-induced G-CSF production in human normal keratinocyte (NHK).
< 50 nM
